tested on: NCI-H460; experiment: NCI tumour cell line growth inhibition, 48 h
Activity calls are given as the source filed them. Cut-off read from the data, not from the text of the source: active = GI50 up to about 1.1 µM and inactive = higher. Square brackets hold non-standard residues; d marks the D form. Peptide text beside a SMILES is read from it. * marks the point of attachment. X26 = COC1=CC(=O)N(C(=O)[C@@H](O*)C(C)C)[C@H]1Cc1ccccc1; Bn2Val = CC(C)[C@@H](C(=O)*)N(Cc1ccccc1)Cc1ccccc1; NMeV = CN[C@H](C(=O)O)C(C)C; dNMeA = CN[C@H](C)C(=O)O
The compounds listed here are annotated with their GI50.

These solved cases illustrate the format of a correct answer.
{"COMPOUND": "CC(C)(CN)CN", "PARAMETER MEASURED": "GI50", "OBSERVED MEASUREMENT": "> 100 µM (inactive)"}
{"COMPOUND": "COc1ccccc1NC(=O)C(=O)C1C(=O)Nc2ccccc2[S+]1[O-] (centres undefined)", "PARAMETER MEASURED": "GI50", "OBSERVED MEASUREMENT": "> 100 µM (inactive)"}
{"COMPOUND": "CN(C)C(=O)Oc1ccc(C(=S)Nc2ccccc2)cc1", "PARAMETER MEASURED": "GI50", "OBSERVED MEASUREMENT": "40.5 µM (inactive)"}
{"COMPOUND": "O=[N+]([O-])c1ccc(S(=O)(=O)Cc2ccccc2)c([N+](=O)[O-])c1", "PARAMETER MEASURED": "GI50", "OBSERVED MEASUREMENT": "5.12 µM (inactive)"}
{"COMPOUND": "CC1(C)C(O)OC(O)C1(C)C (centres undefined)", "PARAMETER MEASURED": "GI50", "OBSERVED MEASUREMENT": "> 100 µM (inactive)"}
{"COMPOUND": "Oc1cc(CN2COc3ccccc32)c(O)cc1CNC1CCCCC1", "PARAMETER MEASURED": "GI50", "OBSERVED MEASUREMENT": "17.1 µM (inactive)"}

Lookup: // map COC1=CC(=O)N(C(=O)[C@@H](OC(=O)[C@@H](C)N(C)C(=O)[C@@H]2CCCN2C(=O)[C@H](C(C)C)N(C)C(=O)[C@@H](NC(=O)[C@H](C(C)C)N(Cc2ccccc2)Cc2ccccc2)C(C)C)C(C)C)[C@H]1Cc1ccccc1 (Bn2Val-V[NMeV]P[dNMeA]-X26) to recorded GI50 (system: NCI-H460)
Found: > 100 µM (inactive)

Lookup: // map Cc1sc2[nH]c(=O)oc(=O)c2c1C to recorded GI50 (system: NCI-H460)
Found: > 100 µM (inactive)

Lookup: // map COc1cc2c(cc1OC)C(C)N(C)c1c-2c(OC(C)=O)cc2cc(OC)c(OC)cc12 (centres undefined) to recorded GI50 (system: NCI-H460)
Found: 6.38 µM (inactive)

* * *

The compounds listed here are annotated with their GI50.
system: NCI-H23; assay: NCI tumour cell line growth inhibition, 48 h
Calls of active or inactive are those of the source. Cut-off read from the data, not from the text of the source: active = GI50 up to about 1.1 µM and inactive = higher.

These solved cases illustrate the format of a correct answer.
{"COMPOUND": "Cc1cc(CCC(=O)NCCNc2c3ccccc3nc3ccccc23)cc(C)c1O[Si](C)(C)C(C)(C)C", "GI50": "1.93 µM (inactive)"}
{"COMPOUND": "CC(=O)NNc1nc(C)c(C(/C=C/c2ccc3c(c2)OCO3)=N/NC(=O)c2ccncc2)s1", "GI50": "> 100 µM (inactive)"}
{"COMPOUND": "Cc1ccc(C(=O)O)cc1NC(=O)c1cc(/C=C/c2ccccc2)[nH]c(=S)n1", "GI50": "> 100 µM (inactive)"}
{"COMPOUND": "O=c1/c(=C/c2ccco2)sc2nc3ccccc3n12", "GI50": "> 10 µM (inactive)"}
{"COMPOUND": "CC(=O)OC1OC(c2ccoc2)C[C@@]12C1CCC3O[C@]3(C)[C@]1(C)[C@H](OC(C)=O)[C@H](OC(C)=O)[C@H]2C (some centres undefined)", "GI50": "30.3 µM (inactive)"}

Lookup: Fill in: GI50 of COc1cc(/C=N/c2ccccn2)cc(OC)c1OC is ___
Found: > 100 µM (inactive)

Lookup: Fill in: GI50 of CCCCCCCCCCCCCCCCCCNc1ccn(C2OC(COP(=O)(O)O)C(O)C2O)c(=O)n1 (centres undefined) is ___
Found: > 100 µM (inactive)

Lookup: Fill in: GI50 of CC(=O)Oc1ccc2c(c1)O/C(=C\c1ccc(O)cc1)C2=O is ___
Found: > 100 µM (inactive)

Lookup: Fill in: GI50 of O=c1[nH]c2ccccc2nc1CBr is ___
Found: 14.6 µM (inactive)

Lookup: Fill in: GI50 of CCOC(=O)Cn1nnc2ccc(Nc3nc4ccccc4nc3C(=O)OCC)cc21 is ___
Found: 45.9 µM (inactive)

Lookup: Fill in: GI50 of O=C(O)C1C(C(=O)O)C2C(=O)C=CC1N2Cc1ccccc1 (centres undefined) is ___
Found: 2.27 µM (inactive)

Lookup: Fill in: GI50 of O=[N+]([O-])/C=C\c1c[nH]c2ccc(OCc3ccccc3)cc12 is ___
Found: 3.4 µM (inactive)

Lookup: Fill in: GI50 of CCOC(=O)C(C(=O)OCC)C(=O)c1ccccc1C(=O)c1ccccc1 is ___
Found: > 100 µM (inactive)

Lookup: Fill in: GI50 of COC(=O)C(C(=O)C(=O)Nc1ccccc1C)c1nc2ccc([N+](=O)[O-])cc2nc1O (centres undefined) is ___
Found: > 100 µM (inactive)

Lookup: Fill in: GI50 of C=C(OC1C(C)=C2C(C1OC(=O)CCCCCCC)C(C)(OC(C)=O)CC(OC(=O)CCC)C1(O)C2OC(=O)C1(C)O)/C(C)=C/C (centres undefined) is ___
Found: 0.0125 µM (active)

Lookup: Fill in: GI50 of O=C(/C=C/c1cc2ccccc2o1)N1CCN(c2ccccn2)CC1 is ___
Found: > 100 µM (inactive)

Lookup: Fill in: GI50 of CC1CN=C(N(Cc2ccccc2)C(=O)Nc2ccc(Cl)c(Cl)c2)S1 (centres undefined) is ___
Found: 43.1 µM (inactive)

Lookup: Fill in: GI50 of CC(=O)O[C@H]1C(=O)[C@@]2(C)[C@H]([C@H](OC(=O)c3ccccc3)[C@]3(O)C[C@H](OC(=O)[C@H](O)[C@@H](NC(=O)C(C)(O)C(C)O)c4ccccc4)C(C)=C1C3(C)C)[C@]1(OC(C)=O)CO[C@@H]1C[C@@H]2O (some centres undefined) is ___
Found: 0.282 µM (active)

Lookup: Fill in: GI50 of CC(=O)OC[C@@H](COC(=O)/C=C/c1ccc(O)cc1)OC1OC(CO)C(O)C(O)C1O (some centres undefined) is ___
Found: > 100 µM (inactive)
